tested on: TK-10 renal; assay: NCI tumour cell line growth inhibition, 48 h
result-type: TGI

| compound | result-type | measured-result |
| --- | --- | --- |
| CC(=O)Nc1nc(C#N)[nH]c1C#N | TGI | > 100 µM |
| COc1cccc2c(=O)oc(-c3ccc(C(C)(C)C)cc3)nc12 | TGI | > 100 µM |
| Cc1cc(C(=O)CCCCOc2ccc(C3=NCCO3)cc2)c(C)n1C | TGI | > 100 µM |
| C#CC1(O)CCC2C3CCc4cc(Oc5nc(F)nc(-c6c7ccccc7c7sc8ccccc8n67)n5)ccc4C3CC[C@@]21C (stereo not given in full) | TGI | > 100 µM |
| COc1cc(NCc2ccc3oc(=O)c(-c4ccccc4)nc3c2)cc(OC)c1OC | TGI | > 10 µM |
| Cc1ccc(S(=O)(=O)N/N=C/C2(c3ccccc3)c3ccccc3-c3ccccc32)cc1 | TGI | 98.5 µM |
| OCCc1ccsc1-c1sc(-c2cc(CCO)c(-c3sccc3CCO)s2)cc1CCO | TGI | 44 µM |
| CC1=NN(c2cccc(Cl)c2)C2(SCC(=O)N2c2nc3ccccc3s2)/C1=C\c1ccccc1O (stereo not given) | TGI | > 100 µM |

I would be grateful if you could provide TGI for each of the following entries.
1. NC1=NCC(CN2CCOCC2)O1 (stereo not given)
2. O=C(O)CCC(=O)OC1N=C(c2ccccc2Cl)c2cc([N+](=O)[O-])ccc2NC1=O (stereo not given)

1. > 100 µM
2. > 100 µM

###

tested on: RPMI-8226 leukemia; experiment: NCI tumour cell line growth inhibition, 48 h
result-type: TGI

| compound | target-system | measured-result |
| --- | --- | --- |
| O=c1[nH]c(=O)n(C2OC(CO)C(O)C2O)c2nc(-c3ccc(-c4ccccc4)cc3)cnc12 (stereo not given) | RPMI-8226 leukemia | > 100 µM |
| O=[N+]([O-])C(/C=C(\Cl)n1nnc2ccccc21)=C(/Cl)n1nnc2ccccc21 | RPMI-8226 leukemia | > 100 µM |
| CSc1nc(NC2OCC(OC(C)=O)C(OC(C)=O)C2OC(C)=O)c(N=CC=Nc2c(NC3OCC(OC(C)=O)C(OC(C)=O)C3OC(C)=O)nc(SC)[nH]c2=O)c(=O)[nH]1 (stereo not given) | RPMI-8226 leukemia | > 100 µM |

I would be grateful if you could provide TGI for each of the following entries.
1. O=C(/C=C/c1ccc(Cl)cc1)c1ccc(Nc2ccnc3cc(Cl)ccc23)cc1
2. COc1ccc(/C=C(/C#N)n2nnc3cccc(F)c32)cc1
3. CCN1c2ccccc2C(C(SC)S(=O)(=O)c2ccc(C)cc2)c2c1[nH]c(=O)n(C)c2=O (stereo not given)
4. CCCCCCN(CCCCCC)C(=O)Cc1c2n(c3ccccc13)Cc1ccccc1-2

["> 30.7 µM", "> 100 µM", "> 100 µM", "> 100 µM"]

I would be grateful if you could provide TGI for each of the following entries.
1. COc1cc(NCc2ccc3oc(=O)c(-c4ccccc4)nc3c2)cc(OC)c1OC
2. Cc1ccc(S(=O)(=O)Nc2ccccc2C(=O)c2ccc(C)c(C)c2)cc1
3. NC1(C(=O)OCc2ccccc2)CCCC1
4. CN(C)c1ccc(S(=O)Nc2ccccc2)cc1 (stereo not given)
5. CC[C@H](Nc1ncnc2nc[nH]c12)c1oc2ccccc2c(=O)c1-c1cccc(F)c1
6. COc1c(Cl)c(=O)oc2ccc(Cl)cc12

> 10 µM
> 100 µM
68.2 µM
> 100 µM
> 100 µM
> 100 µM

I would be grateful if you could provide TGI for each of the following entries.
1. O=C(Nc1nccs1)c1c(O)nc2sccn2c1=O
2. CC(C)[C@H]1COC(=O)N1[C@@H]1C(=O)N([C@@H](CCC(=O)N2CCN(C3CCCC3)CC2)C(=O)N[C@@H]2CCCc3ccccc32)[C@@H]1/C=C/c1cccc(Br)c1
3. C=C1C(=O)O[C@H]2[C@H]1CC/C(COC(=O)c1c[nH]c3ccccc13)=C\CC[C@@]1(C)O[C@@H]21
4. CCCC(=O)OC1CC(n2cc(F)c(=O)[nH]c2=O)OC1COP(=O)(OCC(Cl)(Cl)Cl)OCC(Cl)(Cl)Cl (stereo not given)

> 10 µM
3.93 µM
0.281 µM
86.4 µM

I would be grateful if you could provide TGI for each of the following entries.
1. CC(C)C(C)/C=C\C(C)C1CCC2C3=CC=C4CC(O)CCC4(C)C3CCC21C (stereo not given)
2. Oc1ccc([I+]c2ccccc2)cc1O
3. COc1ccc(C2=N/C(=C\c3ccccc3)C(=O)O2)cc1

> 100 µM
61.4 µM
> 100 µM

###

tested on: NCI/ADR-RES ovarian; assay: NCI tumour cell line growth inhibition, 48 h
result-type: TGI

// known answers, use as guide
| molecule | TGI |
| --- | --- |
| C=C(Br)C(C)(Br)CCC(Br)C(C)(C)Cl (stereo unspecified) | 54.2 µM |
| NC1(C(=O)OCc2ccccc2)CCCC1 | > 100 µM |
| COc1ccc(-c2nc(SCC(=O)N/N=C/c3ccc(N(C)C)cc3)[nH]c2-c2ccc(OC)cc2)cc1 | > 100 µM |
| O=C(/C=C/c1ccc(Cl)cc1)c1ccc(Nc2ccnc3cc(Cl)ccc23)cc1 | > 100 µM |

I would be grateful if you could provide TGI for each of the following entries.
1. CN(C(=O)c1ccc(C(F)(F)F)cc1)c1ccc(Oc2ccc3c(c2)cc(C(=O)N2CCN(Cc4ccc(OC(F)F)cc4)CC2)n3C)nc1
2. CC1=NN(c2cccc(Cl)c2)C2(SCC(=O)N2c2nc3ccccc3s2)/C1=C\c1ccccc1O (stereo unspecified)
3. COc1ccc2c(C)cc(=O)oc2c1OC

> 100 µM
55.5 µM
> 100 µM

I would be grateful if you could provide TGI for each of the following entries.
1. CCCCCCCC(=O)SCC/C=C/[C@@H]1CC(=O)NCc2cc(ccn2)C2=N[C@@](C)(CS2)C(=O)N[C@@H](C(C)C)C(=O)O1
2. CCN(CC)CCn1c(=O)c2cccnc2n2c3c(=O)n(C)c(=O)n(C)c3nc12
3. CN1CSC(=S)N(c2c3ccccc3nc3ccc(Br)cc23)C1
4. CCOC(=O)c1cn2c(nc1=O)N[C@H]1CCCC[C@@H]12

1: > 33.3 µM; 2: > 100 µM; 3: 30.9 µM; 4: > 100 µM

I would be grateful if you could provide TGI for each of the following entries.
1. COc1cc(OC)cc(-c2cc(=O)c3c(OC)c(OC)c(OC)c(OC)c3o2)c1
2. Cc1cccc2c1CC1(C2)Cc2c(C)cccc2C1=O (stereo unspecified)
3. Nc1ncnc2c1nnn2C1OC(CO)C(O)C1O (stereo unspecified)
4. O=C1NCCN1/N=C/c1c(Cl)n(-c2ccccc2)c2ccccc12
5. N#Cc1c(-c2ccccc2)/c(=C\Nc2ccc(F)cc2)c(=O)n2c1nc1ccccc12
6. CCOC(=O)c1cc2nc3ccccc3c(=O)n2c2ccccc12

> 100 µM
> 100 µM
9.32 µM
49.6 µM
64.9 µM
> 10 µM

I would be grateful if you could provide TGI for each of the following entries.
1. OCc1ccc(-c2ccc(-c3ccc(CO)s3)o2)s1
2. NC1=NCC(CN2CCOCC2)O1 (stereo unspecified)

1: 71.5 µM; 2: > 100 µM

I would be grateful if you could provide TGI for each of the following entries.
1. O=C(CCc1nnc2sc(-c3ccc(Cl)cc3Cl)nn12)c1nc2ncccc2[nH]1
2. CN(C)C1(N(C)C)Oc2c(c(=O)n(C)c(=O)n2C)C(c2ccc(Br)cc2)C1(F)F (stereo unspecified)

1: 9.12 µM; 2: > 100 µM

###

Assign GI50 to each entry below.
tested on: A549 NSCLC; experiment: NCI tumour cell line growth inhibition, 48 h

// known answers, use as guide
| compound | measured-result |
| --- | --- |
| C[C@@H]1CCC2[C@@H](C)[C@@H](OCC(CO[C@H]3OC4O[C@@]5(C)CC[C@H]6[C@H](C)CCC([C@H]3C)[C@@]46OO5)OC(=O)CCC(=O)O)OC3O[C@@]4(C)CC[C@@H]1[C@]32OO4 (some centres not stated) | 0.971 µM |
| OC(c1cc(-c2ccc(C(F)(F)F)cc2)nc(-c2ccc(C(F)(F)F)cc2)c1)C1CCCCN1 (configuration not stated) | 1.72 µM |
| O=C(CCc1nnc2sc(-c3ccc(Cl)cc3Cl)nn12)c1nc2ncccc2[nH]1 | 2.78 µM |
| Cn1cnc([N+](=O)[O-])c1S(=O)(=O)Oc1cccc2ccccc12 | 17.5 µM |
| Cc1cc(-c2ccc3nc(C4CCOCC4)n(CCOC(F)(F)F)c3c2)cn(C)c1=O | 0.48 µM |
| CN1CCN(CCCn2c(=O)c3sc4ncccc4c3n3nnc(-c4ccccc4)c23)CC1 | 6.81 µM |

I would be grateful if you could provide GI50 for each of the following entries.
1. COc1cccc(-c2nc(-c3ccc(NC(=O)C(C)C)cc3)[nH]c2-c2ccnc(Br)c2)c1
2. [Cl-].[La+3].[O-]/N=C(\c1ccccc1)c1ccccn1.[O-]/N=C(\c1ccccc1)c1ccccn1.[O-]/N=C(\c1ccccc1)c1ccccn1
3. Cc1cccc(NC(=O)Cn2cnc3sc(C(=O)OC(C)C)c(C)c3c2=O)c1

3.45 µM
41.8 µM
16.4 µM
